Data provenance is the supplement of paper PMC10646978.

Kindly state IRF reporter for each of the entries shown.
- System: RAW-Dual (murine macrophage reporter line)
- assay-overview: IRF reporter (Lucia luciferase) activity fold change vs agonist alone; higher = enhanced IRF activity
- applied-conditions: modulator concentration 10 µM; agonist: MPLA […]
Give bare numbers.

Each compound below has a recorded value; state its IRF reporter.
1. Nc1ccn(C[C@@H](CO)OCP(=O)(O)O)c(=O)n1
2. Cc1cc(C)n(CC2CCN(Cc3ccc(Br)cc3)CC2)n1
3. Cc1cccc(OCC(=O)Nc2cccc([N+](=O)[O-])c2)c1C
4. C#CCN[C@@H]1CCc2ccccc21
5. Clc1cccc(OCCCOc2cccc3cccnc23)c1

1.14
1.27
1.24
0.973
2.83

Parameters: items (list). Returns: IRF reporter for each item.
1. CC(=O)SCC(Cc1ccccc1)C(=O)NCC(=O)OCc1ccccc1 (stereo not drawn)
2. O=C(C=Cc1ccc(O)cc1)c1ccc(O)cc1O
3. [O-][n+]1cccc(CO)c1
4. CN(C)c1ccc(C=C2C(=O)C(=O)c3ccccc32)cc1Br
5. CC(C)(C)c1cc(C=NO)c(C(C)(C)C)s1
6. CCCCCc1ccc(-c2ccc(-c3noc(-c4ccc(CCCC)cc4)n3)cc2)cc1
7. O=c1c(O)c(-c2cc(O)c(O)c(O)c2)oc2cc(O)cc(O)c12

[0.785, 0.81, 1.4, 1, 0.746, 1.45, 1.01]

Would you mind giving IRF reporter for every compound in the list below?
1. CC1=C(C(=O)N2CCOCC2)C(c2cccs2)NC(=O)N1 (stereo not drawn)
2. Cc1ccc(S(=O)(=O)Nc2cc(-c3c(O)ccc4ccccc34)c(O)c3ccccc23)cc1
3. O=C(CS(=O)Cc1ccco1)NC/C=C\COc1cc(CN2CCCCC2)ccn1 (stereo not drawn)
4. Nc1ncn(C2O[C@H](CO)[C@@H](O)[C@H]2O)c(=O)n1 (stereo partly drawn)

1.17
0.611
1
0.747

Hi there! I need IRF reporter for each item below, if you can.
1. COc1ccc(CC(=O)N2CCCc3ccccc32)cc1OC
2. c1ccc(CNc2nc(N3CCOCC3)nc(N3CCOCC3)n2)cc1
3. COc1c2c(nc3ccccc13)OC(C(C)(O)COC(C)=O)C2 (stereo not drawn)
4. CC1=C(C(=O)OCC(F)(F)C(F)(F)F)C(c2ccccc2)NC(=O)N1 (stereo not drawn)
5. CCOc1ccc2oc(-c3ccccc3)c(C(=O)N3CCN(C)CC3)c2c1

1. 1.6
2. 1.24
3. 1.3
4. 1.23
5. 1.26

I'm hoping you can list IRF reporter for every compound here, please.
1. CCC(C)(C)C(=O)Nc1ccc(C(C)=O)cc1
2. Cc1cn(-c2cc(NC(=O)c3ccc(C)c(Nc4nccc(-c5cnccn5)n4)c3)cc(C(F)(F)F)c2)cn1

1: 1.11; 2: 1.19

----------
Kindly state NF-kB reporter for each of the entries shown.
- Test system: RAW-Dual (murine macrophage reporter line)
- assay-overview: NF-kB reporter (SEAP) activity fold change vs agonist alone; higher = enhanced NF-kB activity
- applied-conditions: modulator concentration 10 µM; agonist: LPS 0.1 ug/mL
Numbers only.

Observe how each entry below is paired with its result.
CC1CC(=O)C2=C(C1)OC(N)=C(C#N)C2c1ccc(Cl)cc1 (stereo unspecified): 1.06
CN1CCN(C(=O)CN2C(=O)c3cccc4cccc(c34)C2=O)CC1: 0.981
COc1ccc2c(c1)c(=O)oc1cc(OCc3cccc(C(F)(F)F)c3)ccc12: 1.01
CCN(CC)CCOC(=O)c1ccc(N)cc1Cl.Cl: 0.971
O=C(NC1CCCCC1)N(Cc1cnc2ccccn12)c1ccccc1: 1.14
O=C(NN=Cc1cccc(Cl)c1Cl)c1cc(O)cc(O)c1: 0.918
COc1ccc(C(=O)C=Cc2cc(OC)c(OC)c(OC)c2)c(O)c1: 0.199
NC(=O)c1ncn(C2OC(CO)C(O)C2O)n1 (stereo unspecified): 1.16

Dear colleague, could you send me NF-kB reporter for each of the items below? Thanks.
1. Cc1cccc(C(=O)N2N=C(c3ccccc3)CC2(O)C(F)(F)F)c1 (stereo unspecified)
2. CC(=O)Nc1cc2nc3ccccc3nc2cc1NC(C)=O
3. COc1ccc(C2=NN(C(=O)c3ccc(Br)cc3)C(c3nc4ccccc4[nH]3)C2)cc1 (stereo unspecified)

1. 1.13
2. 1.05
3. 1.1

----------
- Test system: RAW-Dual (murine macrophage reporter line)
- assay-overview: IRF reporter (Lucia luciferase) activity fold change vs agonist alone; higher = enhanced IRF activity
- applied-conditions: modulator concentration 10 µM; agonist: 3'3'-cGAMP 10 ug/mL
Just so you know, the groups by IRF reporter go like this: 1 = under 0.9, 2 = from 0.9 up to 1, 3 = 1 and over

CCOC(=O)C1=C(COCCN)NC(C)=C(C(=O)OC)C1c1ccccc1Cl.O=S(=O)(O)c1ccccc1 (stereo not given): 1
CC(C)C(=O)N1CCCc2ccc(NC(=O)COc3ccc4ccccc4c3)cc21: 1
COc1ccccc1OCCOCCOc1cccc(Br)c1: 3
CCN(CC)c1ccc(C=C(C#N)c2n[nH]c(N)c2C#N)c(OC)c1: 1
COC(=O)CCc1ccc(OCC(O)CNC(C)C)cc1 (stereo not given): 2
CS(=O)(=O)N(CC(=O)NCCSCc1cccc(Cl)c1)c1ccc(F)cc1: 3
O=C1Cc2cc(NC(=O)c3ccc(OC(F)(F)F)cc3)ccc2N1: 1
CC(=O)N1CC(C(=O)Nc2cccc(Br)c2)C1: 2

With those in mind, consider the next compound.
In plain terms, what class is Cn1c2c(c3ccccc31)CCCC2NC=O (stereo not given) ?
2

----------
- System: RAW-Dual (murine macrophage reporter line)
- assay-overview: viability score (confluency relative to resting cells, overnight) (fraction); higher = more viable, active = viable (0.7 or more)
- applied-conditions: modulator concentration 10 µM
assay-readout: viability score
Answers are plain numbers.

Here's what some known entries look like.
CS(=O)(=O)N1CCCCC1C(=O)N(CC1CCCO1)c1nc2c(F)cccc2s1 (stereo unspecified): 0.966
c1cc2c3c(cccc3c1)-c1nc3ccccc3nc1-2: 1.01
CCOc1ccc(CN(CCc2ccc3c(c2)OCO3)Cc2ccc3ccccc3c2)cc1: 0.989
Cc1[nH]c2ccc(Br)cc2c(=O)c1CN1CCCCC1: 1
COc1ccc(CCNc2nnc(Cc3ccc(Cl)cc3)c(=O)[nH]2)cc1OC: 1.02

Please go through the list and note viability score for each compound.
1. COC(=O)c1cc(Br)ccc1NC(=O)c1ccccc1
2. CCC(C(=O)N1CC(Nc2cnccn2)C1)c1ccccc1 (stereo unspecified)

1: 0.99; 2: 0.984

Respectfully, I request viability score for each entry included below.
1. Oc1ccc(C=NCc2ccccc2)cc1
2. CCN(CC)CC#CC(OC)(c1ccccc1)c1ccccc1.Cl

1: 1; 2: 0.148

----------
- Tested on: RAW-Dual (murine macrophage reporter line)
- assay-overview: NF-kB reporter (SEAP) activity fold change vs agonist alone; higher = enhanced NF-kB activity
- applied-conditions: modulator concentration 10 µM; agonist: CpG ODN 1826 0.5 ug/mL
Please enter true where NF-kB reporter is greater than or equal to 0.9, and false where it is lower.

CC(=O)NC(c1ccccc1)c1c(OC(=O)COc2ccccc2)ccc2ccccc12 (stereo not given): false
Cc1[nH]c2ccc(Br)cc2c(=O)c1CN1CCOCC1: true
Cc1ccc(S(=O)(=O)N=C(Nc2ccc([N+](=O)[O-])cc2)c2ccccc2)cc1: true
Cc1nc(C(=O)NCC(=O)O)c(O)c2ccc(Oc3ccccc3)cc12: false

hey, is NF-kB reporter for this one >= 0.9? "CC1(C)CC(NC(=O)c2cccnc2-c2nc3ccccc3s2)CC(C)(C)N1"
false

Does NF-kB reporter meet or surpass 0.9 for "COc1cc2c(cc1OC)CC(=O)N(CCCN(C)C[C@H]1Cc3cc(OC)c(OC)cc31)CC2.Cl" ?
false

Hi, just wondering whether "Fc1ccc(Nc2nc(NN=Cc3ccc(Cl)cc3)nc(N3CCCCC3)n2)cc1" shows NF-kB reporter of 0.9 or higher.
true

API: above_or_equal(metric=NF-kB reporter, cutoff=0.9) for item "O=C(NCCCn1ccc2cccnc21)c1ccccc1C(F)(F)F"
true

Could you verify whether the entry "CC(C)(C)c1ccc(C(=O)CCCN2CCC(OC(c3ccccc3)c3ccccc3)CC2)cc1" shows NF-kB reporter of no less than 0.9?
true

Is reported NF-kB reporter greater than or equal to 0.9 here: Cc1cc(C)c(NC(=O)C2C3CCC4C(CCC32)C4(Cl)Cl)c(C)c1 (stereo not given)
true

----------
- System: RAW-Dual (murine macrophage reporter line)
- assay-overview: IRF reporter (Lucia luciferase) activity fold change vs agonist alone; higher = enhanced IRF activity
- applied-conditions: modulator concentration 10 µM; agonist: 3'3'-cGAMP 10 ug/mL
assay-readout: IRF reporter
One number for each entry.

Check out these entries, answers already filled in.
NC[C@@H]1O[C@H](O[C@@H]2[C@@H](CO)OC(O[C@@H]3[C@@H](O)[C@H](N)C[C@H](N)[C@H]3O[C@H]3O[C@H](CN)[C@@H](O)[C@H](O)[C@H]3N)[C@@H]2O)[C@H](N)[C@@H](O)[C@@H]1O.O=S(=O)(O)O (stereo partly specified): 0.908
Cc1ccc(S(=O)(=O)n2c(C)nc3ccccc32)cc1: 0.969
O=C(NCCN1CCN(c2ccc(Cl)cc2)CC1)c1cnccn1: 0.982
COc1ccc(-c2[nH]c3ccccc3c2SCCNC(=O)c2ccccc2)cc1: 0.832
O=c1c(O)c(-c2ccccc2)oc2cc(O)ccc12: 0.764

Could you report IRF reporter for every entry in the following list?
1. COC(=O)C1=C(C)NC2=C(C(=O)CC(C)(C)C2)C1c1ccc(OC)c(O)c1 (stereo unspecified)
2. CN1CCN(C(c2ccccc2)c2ccccc2)CC1.Cl.Cl
3. CCCCN(CCCC)S(=O)(=O)c1ccc(N2CCCC2=O)c([N+](=O)[O-])c1
4. CCOC(=O)C1=C(C)NC(C)=C(C(=O)OC)C1c1cccc([N+](=O)[O-])c1 (stereo unspecified)
5. C[C@H](NC(=O)C(=O)Nc1ccccc1C(C)(C)C)C(=O)N[C@@H](CC(=O)O)C(=O)COc1c(F)c(F)cc(F)c1F
6. O=C(CSC1CC(=O)N(c2ccc(C(=O)O)cc2)C1=O)Nc1ccc(Cl)cc1 (stereo unspecified)
7. O=C(Nc1ccc(Cl)cc1)C(Sc1ccccc1)c1ccccc1 (stereo unspecified)

[1.01, 0.701, 0.975, 1.02, 0.51, 0.396, 0.989]
